These measurements were taken from ChEMBL document CHEMBL5724914.

Measurement protocol: The drug is tested on WLS-310 corresponding to human gut metagenome with ENA study accession number: PRJEB37062 and ENA sample accession number: ERS12561785 for biotransformation under anaerobic condition. The drug concentrations were measured over 9 timepoints collected between 0 and 24 hours of incubation by liquid-chromatography-coupled mass spectrometry (LC–MS); note: call rule not given here
Assay context: 2 µM
Parameter measured: Bacterial Biotransformation

Example cases with answers are listed next.
[[record]]
molecule = "Cc1ccnc2c1NC(=O)c1cccnc1N2C1CC1"
parameter_measured = "Bacterial Biotransformation"
result = "Compound metabolized"

[[record]]
molecule = "Cc1ccccc1N1C(=O)c2cc(S(N)(=O)=O)c(Cl)cc2NC1C (stereo not drawn)"
parameter_measured = "Bacterial Biotransformation"
result = "Compound NOT metabolized"

[[record]]
molecule = "CCCCCOC(=O)Nc1nc(=O)n([C@@H]2O[C@H](C)[C@@H](O)[C@H]2O)cc1F"
parameter_measured = "Bacterial Biotransformation"
result = "Compound metabolized"

[[record]]
molecule = "O=c1n(CCCN2CCN(c3cccc(Cl)c3)CC2)nc2ccccn12"
parameter_measured = "Bacterial Biotransformation"
result = "Compound NOT metabolized"


*Q* I would be grateful if you could share the reported Bacterial Biotransformation for CC[C@H](C)C(=O)O[C@H]1C[C@@H](C)C=C2C=C[C@H](C)[C@H](CC[C@@H]3C[C@@H](O)CC(=O)O3)[C@H]21 .
*A* Compound NOT metabolized

*Q* Request: COC(=O)[C@H]1[C@H]2C[C@@H]3c4[nH]c5cc(OC)ccc5c4CCN3C[C@H]2C[C@@H](OC(=O)c2cc(OC)c(OC)c(OC)c2)[C@@H]1OC
*A* Compound metabolized

*Q* Another: O=C1[C@H](CC[C@H](O)c2ccc(F)cc2)[C@@H](c2ccc(O)cc2)N1c1ccc(F)cc1
*A* Compound NOT metabolized

*Q* Item: CN(C(=O)CN(CCO)CC(=O)N(C)C(C)(C)Cc1ccccc1)C(C)(C)Cc1ccccc1
*A* Compound metabolized

*Q* // query: C#C[C@]1(O)CC[C@H]2[C@@H]3CCC4=Cc5oncc5C[C@]4(C)[C@H]3CC[C@@]21C
*A* Compound metabolized

*Q* Input O=C(NCc1ccccc1)OCCO [BURAMATE]
*A* Compound NOT metabolized

*Q* // repeat for CCC(=O)NCC[C@@H]1CCc2ccc3c(c21)CCO3 and report
*A* Compound metabolized
